# Test Target: cGMP phosphodiesterase (cGMP-PDE) (Bos taurus, UniProt Q28156)
# Construct: is a homogeneous enzyme obtained from bovine lung; from tissue; host or cells: bovine lung
# Experiment Description: Inhibition of cGMP phosphodiesterase in vitro
# Type: biochemical, bovine
# Conditions Used: Table VII; 1 μM 3H-cGMP, pH 7.5, 25 min, room temperature
Recorded Endpoint: IC50

# query: IC50 of entry CCOC(=O)c1c(OC)c2cc(C)ccc2n(Cc2ccccc2)c1=O
8 µM

====

# System: HSV-2 (strain MS)
# Experiment Description: HSV-β-Gal assay: transient expression of beta galactosidase in transfected HeLa cells superinfected with HSV-2
# Type: cell-based
# Conditions Used: Human alphaherpesvirus 2; Table II; HeLa cells, HSV-2 strain MS, 24 h; read-out: Anti-HSV activity, HSV-β-GAL assay IC50
Recorded Endpoint: IC50 (µg/mL)
Express your answer in µg/mL, writing the number without its unit.

Observe how each entry below is paired with its result.
Look up IC50 with HSV-2 (strain MS) for this compound: COc1c(SC)c(=O)n(Cc2ccc(O)cc2)c2cc(C)c(C)cc12
10

What measured IC50 is associated with CCCCCCn1c(=O)c(C=NOC)c(OC)c2cc(C)ccc21 on HSV-2 (strain MS)?
7

Given the entry CCCCCCn1c(=O)c(Cn2cnnc2)c(OC)c2cc(C)ccc21 , what IC50 was observed with HSV-2 (strain MS)?
4.5

Param readout= IC50; system= HSV-2 (strain MS); entry= CCCCCCn1c(=O)c(C=NO)c(OC)c2ccccc21 ; returns value.
6

# returns recorded IC50 (system: HSV-2 (strain MS)) for COc1c(SC)c(=O)n(Cc2ccc(O[Si](C)(C)C(C)(C)C)cc2)c2cc(C)c(C)cc12
1.5

Further cases:
What is its IC50 for HSV-2 (strain MS)? Entry: CCCCCCn1c(=O)c(C=NOC)c(OC)c2ccccc21
2.5

Recall the recorded IC50 for Cc1cc2c(OCCN(C)C)c(SCO)c(=O)n(Cc3ccc(O[Si](C)(C)C(C)(C)C)cc3)c2cc1C with HSV-2 (strain MS) and state it.
3

# value lookup — system HSV-2 (strain MS), readout IC50, item CCCCCCn1c(=O)c(C(=O)OCC)c(OC)c2cc(C)ccc21
7

For HSV-2 (strain MS), provide IC50 of CON=Cc1c(OC)c2ccccc2n(Cc2ccccc2)c1=O please.
7

State its IC50 on HSV-2 (strain MS): CCCCCCn1c(=O)c(Cn2cncn2)c(OC)c2cc(C)ccc21
4

For HSV-2 (strain MS), provide IC50 of CCCCCCn1c(=O)c(Cn2cnnn2)c(OC)c2ccccc21 please.
6

// map COc1c(Sc2ccccc2)c(=O)n(C)c2ccc(F)cc12 to recorded IC50 (system: HSV-2 (strain MS))
8

Param readout= IC50; system= HSV-2 (strain MS); entry= CCCCCCn1c(=O)c(Cn2ncnn2)c(OC)c2cc(C)ccc21 ; returns value.
5

Recorded IC50 for CCCCCCn1c(=O)c(CBr)c(OC)c2ccccc21 with HSV-2 (strain MS), please?
5

Request body: readout IC50, system HSV-2 (strain MS), query CCCCCCn1c(=O)c(Cn2cnnn2)c(OC)c2cc(C)ccc21 . Return the value.
5

Form entry - test system: HSV-2 (strain MS); read-out: IC50; compound: CCCCCCn1c(=O)c(Cn2cncn2)c(OC)c2ccccc21
5

I'm curious: which IC50 was measured for CCCCCCn1c(=O)c(Cn2ccnc2)c(OC)c2cc(C)ccc21 tested on HSV-2 (strain MS)?
4.5

What reported IC50 corresponds to CCCCCCn1c(=O)c(C2OCCO2)c(OC)c2ccccc21 on HSV-2 (strain MS)?
10

Missing value: IC50, HSV-2 (strain MS), entry CCCCCCn1c(=O)c(C2OCCO2)c(OC)c2cc(C)ccc21 . Fill in?
9
